- protocol description: Drug solubility in culture medium (light scattering, Nepheloskan)
- Type: physicochemical
- run conditions: complete culture medium with serum; medium with 10% bovine serum and 10% calf serum, 37°C; read-out: Solubility in the culture medium system
metric: solubility

Input COc1cccc(/C=N/N(C(=O)C(F)(F)F)c2ccc(C)cc2C)c1 [J-147] . Output solubility: ≥ 300 µM

* * *

- protocol description: Microsomal metabolic stability
- Assay type: in vitro ADME
- run conditions: male, Sprague-Dawley, pooled microsomes from non-induced rats, 30 minutes at 37°C, rat microsomes, percent of parent remaining
metric: remaining at 0.5 h, 1 μM (%)
Answer with a number only, understood to be in %.

Input COc1cccc(/C=N/N(C(=O)C(F)(F)F)c2ccc(C)cc2C)c1 . Output remaining at 0.5 h, 1 μM: 12
